Assay: Solubility in organic solvents and water
Format: physicochemical
Conditions: isopropanol, organic solvent or mixture, Isopropanol; r.t.; read-out: Solubility
readout.name: Solubility

Query: Quick check: Solubility of C=CC(=O)Nc1cc(Nc2nccc(Nc3cc(Cl)c(F)cc3C(C)(C)O)n2)c(OC)cc1N1CC[C@@H](N(C)C)C1 [Form A] ?
Reply: 4450 to 4940 µg/mL

====

Assay: Solubility in organic solvents and water
Type: physicochemical
Settings: MTBE, organic solvent or mixture, MTBE; r.t.; read-out: Solubility
readout.name: Solubility

Query: Quick check: Solubility of C=CC(=O)Nc1cc(Nc2nccc(Nc3cc(Cl)c(F)cc3C(C)(C)O)n2)c(OC)cc1N1CC[C@@H](N(C)C)C1 [Form A] ?
Reply: < 1820 µg/mL
